target: SNF1 complex (Snf1(1-633)Gal83(1-417)Snf4(1-322)) (Saccharomyces cerevisiae, UniProt P12904); construct: full-length heterotrimer, His-tagged, expressed in E. coli, nickel-Sepharose; phosphorylated on Snf1 Thr210 by CaMKKbeta; with Carbon catabolite-derepressing protein kinase; SNF1 protein kinase subunit beta-3; assay: fluorescence competition against NADH; type: binding; settings: phosphorylated SNF1; 20°C, 50 mM Tris pH 8, 100 mM NaCl, 1 mM TCEP; read-out: Kd
Sequence (P12904 whole entry): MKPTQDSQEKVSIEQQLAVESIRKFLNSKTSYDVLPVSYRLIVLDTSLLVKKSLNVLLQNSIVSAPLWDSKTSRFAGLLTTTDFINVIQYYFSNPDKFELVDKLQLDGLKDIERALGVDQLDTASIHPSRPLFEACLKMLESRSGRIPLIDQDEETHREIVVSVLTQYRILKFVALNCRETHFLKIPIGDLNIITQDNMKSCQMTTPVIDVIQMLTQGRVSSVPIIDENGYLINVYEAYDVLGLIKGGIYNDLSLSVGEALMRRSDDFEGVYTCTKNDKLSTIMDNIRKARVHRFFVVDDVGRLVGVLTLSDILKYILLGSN
Sequence (P06782 whole entry partner): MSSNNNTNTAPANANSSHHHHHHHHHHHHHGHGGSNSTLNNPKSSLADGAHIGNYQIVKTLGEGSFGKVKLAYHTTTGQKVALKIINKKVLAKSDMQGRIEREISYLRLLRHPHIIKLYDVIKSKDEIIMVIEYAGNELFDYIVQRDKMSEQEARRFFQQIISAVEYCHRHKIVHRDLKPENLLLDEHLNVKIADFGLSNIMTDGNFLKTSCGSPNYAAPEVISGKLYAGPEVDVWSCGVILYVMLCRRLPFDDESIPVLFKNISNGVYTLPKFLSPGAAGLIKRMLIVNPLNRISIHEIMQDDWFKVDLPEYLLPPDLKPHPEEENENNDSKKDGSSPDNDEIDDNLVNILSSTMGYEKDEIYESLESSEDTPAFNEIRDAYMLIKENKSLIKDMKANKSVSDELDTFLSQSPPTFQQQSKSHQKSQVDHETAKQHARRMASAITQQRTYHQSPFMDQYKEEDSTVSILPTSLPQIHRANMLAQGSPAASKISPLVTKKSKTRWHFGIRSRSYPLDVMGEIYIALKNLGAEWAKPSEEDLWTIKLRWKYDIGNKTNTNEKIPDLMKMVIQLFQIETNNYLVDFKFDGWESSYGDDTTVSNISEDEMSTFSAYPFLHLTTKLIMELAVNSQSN
Sequence (Q04739 whole entry partner): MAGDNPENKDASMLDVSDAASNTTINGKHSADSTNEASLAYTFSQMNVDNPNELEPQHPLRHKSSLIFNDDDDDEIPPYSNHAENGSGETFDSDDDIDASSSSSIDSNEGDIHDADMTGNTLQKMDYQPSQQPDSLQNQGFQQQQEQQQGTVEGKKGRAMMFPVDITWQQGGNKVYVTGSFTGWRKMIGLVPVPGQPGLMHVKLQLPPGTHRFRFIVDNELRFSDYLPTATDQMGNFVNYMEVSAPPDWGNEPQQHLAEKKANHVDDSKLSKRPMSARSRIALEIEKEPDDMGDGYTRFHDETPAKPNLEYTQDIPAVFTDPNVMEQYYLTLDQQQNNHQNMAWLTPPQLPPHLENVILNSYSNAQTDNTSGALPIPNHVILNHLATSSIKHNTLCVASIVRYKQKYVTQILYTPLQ
pKd: −log10 of the molar value.
Observed Property: pKd

Could you tell me which pKd is on file for NC(=O)c1ccc[n+]([C@@H]2O[C@H](COP(=O)(O)OP(=O)(O)OC[C@H]3O[C@@H](n4cnc5c(N)ncnc54)[C@H](O)[C@@H]3O)[C@@H](O)[C@H]2O)c1 [NAD^+] ?
< 3.60
